Test system: P12-Ichikawa
Run description: cell viability relative to DMSO control; higher = less cytotoxic
Particulars: HPLM + 10% dialyzed FBS; 48 h; 46.1 µM
Measured attribute: cell viability (%)
// return numeric value only (unit: %, not printed)

A selection of reference data follows.
Molecule	cell viability (%)
CN1c2ccccc2C(=O)N2CCc3c([nH]c4ccccc34)C21 (stereo not given)	117
COc1cc2c(Nc3ccc(Br)cc3F)ncnc2cc1OCC1CCN(C)CC1	86.9

So what does the record say about cell viability for Cc1csc(NC(=O)c2sc3nc4c(c(C(F)(F)F)c3c2N)CCC4)n1 ?
83.4

Thanks! And Cc1cnc(C(=O)O)c[n+]1[O-] ?
105

Param item: C[C@]12CC[C@H]3[C@@H](CCC/4=C/C(=O)CC[C@]34C)[C@@H]1CC[C@@H]2O
127

And then Oc1cccc(-c2nc(N3CCOCC3)c3oc4ncccc4c3n2)c1 , what is it?
73.3

Query c1ccc(CNc2nc(N3CCOc4ccccc43)nc3c2CCCC3)cc1 next
107

Repeat with CN(C)c1nc(Cc2ccc(NC(=O)c3ccc4ccccc4c3)cc2)nc(Cl)c1CC(=O)O
69.3

Also O=C\1N(N\C=C1[N]2C=CN=N2)C3=NC=NC(=C3)N4CCOCC4 , if possible.
8.11

Request: NCCCCNCCCN
41.4

====

Tested on: P12-Ichikawa
Run description: cell viability relative to DMSO control; higher = less cytotoxic
Particulars: RPMI 5 mM glucose + 10% dialyzed FBS; 48 h; 0.00702 µM
Listed here are compounds together with their documented cell viability.
Just the number in %, nothing appended.

Check out these entries, answers already filled in.
Compound	cell viability [%]
COc1cc2c(Nc3ccc(Br)cc3F)ncnc2cc1OCC1CCN(C)CC1	84.6
Cn1c(=O)n(-c2ccc(C(C)(C)C#N)cc2)c2c3cc(-c4cnc5ccccc5c4)ccc3ncc21	111

Query: cell viability; subject: ClC1=CC\2=C(NC(=O)\C(=C2N[C@@H]3CN4CCC3CC4)C5=NC6=C([NH]5)C=CC=C6)C=C1
119

Try the compound OC(=O)C(CC/1=C/C(=O)NC2=CC=CC=C12)NC(=O)C3=CC=C(Cl)C=C3 (centres undefined)
129

// same read-out, input: Oc1cccc(-c2nc(N3CCOCC3)c3oc4ncccc4c3n2)c1
119

Subsequent entry: c1ccc(CNc2nc(N3CCOc4ccccc43)nc3c2CCCC3)cc1
107

Try Cc1cnc(C(=O)O)c[n+]1[O-] next.
123

Again, but for COC(=O)C1C2CC3c4[nH]c5cc(OC)ccc5c4CCN3CC2CC(OC(=O)c2cc(OC)c(OC)c(OC)c2)C1OC (centres undefined)
119

Likewise for O=C(O)/C=C/c1ccc(O)c(O)c1 ?
105

====

Test system: NOMO1
Run description: AUC of viability dose-response curve (% viability x log10 dose units); higher = less sensitive
Particulars: RPMI 5 mM glucose + 10% dialyzed FBS; 48 h
Measured attribute: AUC of viability dose-response curve

Examples with answers:
Molecule	AUC of viability dose-response curve
CN(C)CCOc1ccc(-c2nc(-c3ccncc3)c(-c3ccc4c(c3)CC/C4=N\O)[nH]2)cc1	437
CN(C)CCN(C)C(=O)c1ccc(NC(=O)Nc2ccc(-c3nc(N4CCOCC4)c4ccn(CC(F)(F)F)c4n3)cc2)cc1	371
COc1ncnc(N[S+](=O)([O-])c2ccc(N)cc2)c1OC	404

Turning now to a further record.
Entry CCN(C(=O)C/1=C(O)/C2=C(C=CC=C2Cl)N(C)C1=O)C3=CC=CC=C3 : reported AUC of viability dose-response curve = ?
328

====

System: P12-Ichikawa
Run description: cell viability relative to DMSO control; higher = less cytotoxic
Particulars: RPMI 5 mM glucose + 10% FBS; 48 h; 0.00702 µM
Measured attribute: cell viability (%)
Unit % implied. Number only.

Molecule	cell viability, %
Nc1nc(N)c2nc(-c3cccc(O)c3)c(-c3cccc(O)c3)nc2n1	113
O=C(Oc1ccc([N+](=O)[O-])cc1)N1CCC(C(O)(c2ccc3c(c2)OCO3)c2ccc3c(c2)OCO3)CC1	90.3
O=C(Cc1ccc(-c2ccc(OCCN3CCOCC3)cc2)cn1)NCc1ccccc1	123
CN1\C(=C(\O)C2=C(C=CC=C2)[S+]1([O-])=O)C(=O)NC3=CC=CC=N3	114
CN(C)CCN(C)C(=O)c1ccc(NC(=O)Nc2ccc(-c3nc(N4CCOCC4)c4ccn(CC(F)(F)F)c4n3)cc2)cc1	121

For CN1\N=C(N)/C2=C[N]([C@@H]3O[C@H](CO[P](O)(O)=O)[C@@H](O)[C@H]3O)C4=C2C1=NC=N4 , what is its reported cell viability?
105

Try this molecule too: COC/1=C/C=C2\C(=C/C1=O)[C@H](CCC3=CC(=C(OC)C(=C23)OC)OC)NC(C)=O
15.6

Another molecule to check: C=CC(=O)Nc1cccc(Nc2nc(NC3CCC(N(C)C)CC3)nc3c2ncn3C(C)C)c1 (stereo not drawn)
114

====

Test system: SEM cells
Run description: cell viability relative to DMSO control; higher = less cytotoxic
Particulars: RPMI 5 mM glucose + 10% FBS; 48 h; 0.00702 µM
Measured attribute: cell viability

Compound	cell viability
COc1ncnc(N[S+](=O)([O-])c2ccc(N)cc2)c1OC	82.5%

Form: Entry = COc1ccc(C2Sc3ccccc3N(CCN(C)C)C(=O)C2OC(C)=O)cc1 (centres undefined) | System = SEM cells | cell viability = ____
86%

Same read-out for O=C(O)/C=C/c1ccc(O)c(O)c1 ?
90.3%

Here is the next compound: CC(O)(C#Cc1ccc2c(c1)N(c1nc(N)ncc1Cl)CC2)c1nccs1 (centres undefined)
107%

CC(C)c1ccc(Cn2ccc3c4c(N)nc(NC5CC5)nc4ccc32)cc1 ?
120%

// same read-out, input: C[C@]12CC[C@H]3[C@@H](CCC/4=C/C(=O)CC[C@]34C)[C@@H]1CC[C@@H]2O
118%

// next record O=C(Oc1ccc([N+](=O)[O-])cc1)N1CCC(C(O)(c2ccc3c(c2)OCO3)c2ccc3c(c2)OCO3)CC1
58.6%

NC(=O)C1CCCc2c1[nH]c1ccc(Cl)cc21 (centres undefined) ?
134%

Same thing, different compound: O=C(Nc1ncc(SCCN2CCCC2)s1)[C@]1(c2ccc([S+](=O)([O-])C3CC3)cc2)C[C@H]1C1CCCCC1
126%

====

System: P12-Ichikawa
Run description: cell viability relative to DMSO control; higher = less cytotoxic
Particulars: RPMI 5 mM glucose + 10% FBS; 48 h; 46.1 µM
Measured attribute: cell viability (%)
The answer is to be given in %; state only the numeric part.

Before answering, review these 3 worked examples.
Compound	cell viability (%)
CN1c2ccccc2C(=O)N2CCc3c([nH]c4ccccc34)C21 (stereo not drawn)	111
C[C@]12CC[C@@H]3c4ccc(O)cc4CC[C@H]3[C@@H]1C[C@@H](O)[C@@H]2O	107
CC1(C)CNc2cc(NC(=O)c3cccnc3NCc3ccncc3)ccc21	107

// lookup cell viability for CNC[C@H](O)c1cccc(O)c1
114

====

Test system: P12-Ichikawa
Run description: cell viability relative to DMSO control; higher = less cytotoxic
Particulars: RPMI 5 mM glucose + 10% dialyzed FBS; 48 h; 1.71 µM
Measured attribute: cell viability (%)
Respond with the bare value in %.

Worked set:
Molecule	Unit	cell viability
COc1cccc([C@@H](C)NCCCc2ccccc2Cl)c1	%	91.4
CN1CCN2c3ncccc3Cc3ccccc3C2C1 (centres undefined)	%	115
C[S+](=O)([O-])c1ccc(-c2cnc(N)c(C(=O)Nc3ccccc3)n2)cc1	%	114

Name the reported cell viability value associated with the molecule C[C@H]1[C@@H](C(=O)C[C@H]2O[C@@H]3O[C@]4(C)CC[C@H]5[C@H](C)CC[C@@H]([C@H]2C)[C@@]35OO4)O[C@@H]2O[C@]3(C)CC[C@H]4[C@H](C)CC[C@@H]1[C@@]24OO3
102

====

Listing of recorded cell viability by entry.
Tested on: P12-Ichikawa
Run description: cell viability relative to DMSO control; higher = less cytotoxic
Particulars: RPMI 5 mM glucose + 10% FBS; 48 h; 46.1 µM
Write the value in % as a bare number.

Molecule	Measured attribute	Unit	Readout number
O=C1Nc2ccc(I)cc2/C1=C/c1cc(Br)c(O)c(Br)c1	cell viability	%	79
CCC(=C/[C@H](C)C/C=C/C(C)=C/[C@@H](C)C(=O)[C@@H](C)[C@H](O)[C@@H](C)C/C(C)=C/C(=O)O)/C=C/[C@@H]1OC(=O)C=C[C@@H]1C	cell viability	%	8.25

Continue with the compound presented below.
Requested field: cell viability. Item: Nc1cc(C(F)(F)F)c(-c2cc(N3CCOCC3)nc(N3CCOCC3)n2)cn1
7.95
